Just for reference, ChEMBL document CHEMBL5625159 is where these values come from.

- TARGET_DESC: Isocitrate dehydrogenase [NADP] cytoplasmic (Homo sapiens, UniProt O75874, R132H)
- Sequence (O75874 2-414 R132H limits assumed): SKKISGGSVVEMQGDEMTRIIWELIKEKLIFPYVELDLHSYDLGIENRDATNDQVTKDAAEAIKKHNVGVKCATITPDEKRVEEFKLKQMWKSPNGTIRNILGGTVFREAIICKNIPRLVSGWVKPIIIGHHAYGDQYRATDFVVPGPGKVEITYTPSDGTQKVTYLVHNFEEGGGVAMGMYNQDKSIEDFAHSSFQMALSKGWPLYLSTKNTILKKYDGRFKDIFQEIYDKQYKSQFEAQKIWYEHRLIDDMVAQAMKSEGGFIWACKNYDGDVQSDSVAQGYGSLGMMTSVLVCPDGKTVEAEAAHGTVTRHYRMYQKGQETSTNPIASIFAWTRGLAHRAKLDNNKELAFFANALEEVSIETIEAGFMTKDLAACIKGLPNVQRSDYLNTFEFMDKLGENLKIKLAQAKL
- MEASUREMENT_PROTOCOL: Inhibition of human recombinant IDH1 R132H mutant expressed in Escherichia coli
QUANTITY_MEASURED: pIC50
By convention, pIC50 is the negative base-10 log of a molar concentration.

Query block: Supply recorded pIC50 for C=CC(=O)N1CCN(C(CC2CC2)c2ccc([C@H](C)Nc3nc(F)cc(N4C(=O)OCC4(C)C)n3)cc2)CC1 (stereo partly specified) here.
Result block: 8.30

###

In this section we review reported IC50 values for a set of compounds.
- TARGET_DESC: Isocitrate dehydrogenase [NADP] cytoplasmic (Homo sapiens, UniProt O75874, R132H)
- MEASUREMENT_PROTOCOL: Inhibition of human IDH1 R132H mutant heterodimer in presence of alpha-ketoglutarate and NADPH by fluorescence based biochemical assay
Give the value in nM but do not write nM after it.

| COMPOUND | IC50 (nM) |
| --- | --- |
| COC(=O)c1ccc2c(c1)nc(Nc1ccc(C(C)C)cc1)n2C1CC(C)CC(C)(C)C1 (centres undefined) | 180 |
| CC1CC(n2c(Nc3ccc(C(C)C)cc3)nc3cc(C(=O)O)ccc32)CC(C)(C)C1 (centres undefined) | 10 |

Query block: Supply recorded IC50 for CC1CC(n2c(Nc3ccc(C(C)C)cc3)nc3cc(CCC(=O)O)ccc32)CC(C)(C)C1 (centres undefined) here.
Result block: 20000
